Record set of GI50 for target or system SNB-19.
Please respond with the number in nM and leave the unit unwritten.

Sample answers from the record:
[
  {
    "entry-smiles": "Cn1ccnc1C(=O)/C=C/c1ccc(CC(=O)Nc2ccc(Cl)cc2)cc1",
    "meas-value": 1770
  },
  {
    "entry-smiles": "O=C(Cc1ccc(/C=C/C(=O)c2ncc[nH]2)cc1)Nc1ccc(F)cc1",
    "meas-value": 1580
  },
  {
    "entry-smiles": "CCn1ccnc1C(=O)/C=C/c1ccc(CC(=O)Nc2ccc(F)cc2)cc1",
    "meas-value": 3580
  },
  {
    "entry-smiles": "O=C(Cc1ccc(/C=C/C(=O)c2ncc[nH]2)cc1)Nc1ccc(C(F)(F)F)cc1",
    "meas-value": 2790
  },
  {
    "entry-smiles": "O=C(Cc1ccc(/C=C/C(=O)c2ncc[nH]2)cc1)Nc1ccc(Cl)cc1",
    "meas-value": 2320
  },
  {
    "entry-smiles": "Cn1ccnc1C(=O)/C=C/c1ccc(CC(=O)Nc2ccc(F)cc2)cc1",
    "meas-value": 2740
  },
  {
    "entry-smiles": "Cc1ccc(NC(=O)Cc2ccc(/C=C/C(=O)c3ncc[nH]3)cc2)cc1",
    "meas-value": 6650
  }
]

Moving on to the next compound.
Would you mind telling me what GI50 value was observed for Cn1ccnc1C(=O)/C=C/c1ccc(CC(=O)Nc2ccccc2)cc1 ?
1900
